Experiment: Surface tension and cmc, Kruss tensiometer K12
Assay type: physicochemical
Conditions: concentration 0.01%
Experimental: Samples of which surface tensions were to be measured were prepared by mixing SLS and a cationic compound in a mole ratio of 1:1, wherein deionized water was used as water, and a container for measurement was immersed in a cleaning solution for more than 3 hours, washed with water and acetone, dried in an oven, and then used. A ring method was used, and after measuring 5 times, a mean value was taken. […]
# maps each entry to its Surface tension
measured-metric: Surface tension

[[record]]
molecule = "CCCCCCCCCCCC[N+](C)(C)[O-] [Synthesis Example 19, N-Dimethyl Lauryl Amineoxide]"
result = "31.67 mN/m"

[[record]]
molecule = "CCCC[N+](C)([O-])CCCCCC[N+](C)([O-])CCCC (stereo not shown) [Synthesis Example 23, 16-(N,N-butylmethylamineoxyl)hexane]"
result = "64.05 mN/m"

[[record]]
molecule = "C[N+](C)(CCO)CCCCCC[N+](C)(C)CCO.[I-].[I-] [Synthesis Example 14, 1,6-[2-(N,N-dimethylamino)ethanol]hexane]"
result = "71.41 mN/m"

[[record]]
molecule = "CCCCCCCCCCCCOS(=O)(=O)[O-].[Na+] [SLS, sodium lauryl sulfate, reference compound]"
result = "57.18 mN/m"


* * *

Test: Surface tension and cmc, Kruss tensiometer K12
Assay type: physicochemical
Settings: concentration 1%
# maps each entry to its Surface tension
measured-metric: Surface tension (mN/m)

[[record]]
compound = "CCCC[N+](C)([O-])CCCCCC[N+](C)([O-])CCCC (stereo not shown) [Synthesis Example 23, 16-(N,N-butylmethylamineoxyl)hexane]"
unit_abbreviation = "mN/m"
numeric_result = 46.51

[[record]]
compound = "CCCCCCCCCCCC[N+](C)(C)[O-] [Synthesis Example 19, N-Dimethyl Lauryl Amineoxide]"
unit_abbreviation = "mN/m"
numeric_result = 31.94

[[record]]
compound = "C[N+](C)(CCO)CCCCCC[N+](C)(C)CCO.[I-].[I-] [Synthesis Example 14, 1,6-[2-(N,N-dimethylamino)ethanol]hexane]"
unit_abbreviation = "mN/m"
numeric_result = 59.49

[[record]]
compound = "CCCCCCCCCCCCOS(=O)(=O)[O-].[Na+] [SLS, sodium lauryl sulfate, reference compound]"
unit_abbreviation = "mN/m"
numeric_result = 35.92

